# testedTarget: Human HER3, endogenous, on human cancer cell lines (SK-Br-3, MCF7, BT-474) (human, UniProt P21860 20-1342)
# Sequence (P21860 20-1342): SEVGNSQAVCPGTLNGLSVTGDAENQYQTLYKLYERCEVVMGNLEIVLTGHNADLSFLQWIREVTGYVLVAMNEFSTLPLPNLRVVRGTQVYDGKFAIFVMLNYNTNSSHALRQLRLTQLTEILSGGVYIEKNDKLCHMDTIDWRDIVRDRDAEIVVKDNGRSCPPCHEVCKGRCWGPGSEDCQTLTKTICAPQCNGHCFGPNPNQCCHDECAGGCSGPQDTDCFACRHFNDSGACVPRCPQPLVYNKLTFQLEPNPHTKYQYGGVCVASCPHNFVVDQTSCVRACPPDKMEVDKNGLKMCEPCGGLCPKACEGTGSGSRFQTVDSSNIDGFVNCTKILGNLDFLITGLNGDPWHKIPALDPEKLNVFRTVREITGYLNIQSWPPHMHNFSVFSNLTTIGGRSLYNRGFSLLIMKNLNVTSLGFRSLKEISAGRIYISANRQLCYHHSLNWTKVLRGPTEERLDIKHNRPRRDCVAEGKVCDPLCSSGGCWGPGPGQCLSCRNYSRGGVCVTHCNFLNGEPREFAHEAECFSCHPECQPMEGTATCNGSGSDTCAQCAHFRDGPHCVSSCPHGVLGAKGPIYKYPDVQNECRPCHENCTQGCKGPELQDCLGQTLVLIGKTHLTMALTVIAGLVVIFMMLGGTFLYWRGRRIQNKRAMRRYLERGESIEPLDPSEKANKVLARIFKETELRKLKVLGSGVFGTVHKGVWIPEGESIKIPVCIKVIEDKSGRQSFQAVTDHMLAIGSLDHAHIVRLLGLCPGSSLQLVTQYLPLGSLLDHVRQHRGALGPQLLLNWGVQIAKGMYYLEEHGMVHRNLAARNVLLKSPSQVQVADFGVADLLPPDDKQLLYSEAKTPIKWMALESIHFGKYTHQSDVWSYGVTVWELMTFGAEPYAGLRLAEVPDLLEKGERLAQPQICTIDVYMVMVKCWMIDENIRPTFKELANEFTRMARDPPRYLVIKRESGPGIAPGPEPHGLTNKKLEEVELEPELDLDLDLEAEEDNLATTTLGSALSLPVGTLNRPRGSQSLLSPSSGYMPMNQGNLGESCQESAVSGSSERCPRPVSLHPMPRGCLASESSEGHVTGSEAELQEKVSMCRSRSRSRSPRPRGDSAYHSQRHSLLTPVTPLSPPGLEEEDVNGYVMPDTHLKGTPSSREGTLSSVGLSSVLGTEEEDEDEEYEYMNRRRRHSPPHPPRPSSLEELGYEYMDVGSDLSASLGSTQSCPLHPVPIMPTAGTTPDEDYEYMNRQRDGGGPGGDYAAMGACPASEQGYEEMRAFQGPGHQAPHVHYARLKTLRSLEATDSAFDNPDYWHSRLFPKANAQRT
# protocolSummary: cell-based or functional assay
Param threshold (60%) applies to BT474 pHER3 % inhibition; output True when value >= threshold, False when value < threshold.

Is BT474 pHER3 % inhibition for MOR13868 (antibody, human IgG1, kappa, V domains shown, tested as IgG) VH: QVQLVQSGAEVKKPGESLKISCKGSGYSFSNYWIAWVRQMPGKGLEWMGIIYPGLSDTIYSPSFQGQVTISADKSISTAYLQWSSLKASDTAMYYCARVHIIQPPSAWSYNAMDVWGQGTLVTVSS VL: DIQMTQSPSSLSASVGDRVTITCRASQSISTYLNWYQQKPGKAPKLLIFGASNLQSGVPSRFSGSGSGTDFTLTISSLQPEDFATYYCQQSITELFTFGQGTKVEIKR at or above 60%?
True

Quick check: does MOR13761 (antibody, human IgG1, kappa, V domains shown, tested as IgG) VH: QVQLVQSGAEVKKPGESLKISCKGSGYSFTQTWVAWVRQMPGKGLEWMGIIYPGQSDTIYSPSFQGQVTISADKSISTAYLQWSSLKASDTAMYYCARVHIIQPPSAWSYNAMDVWGQGTLVTVSS VL: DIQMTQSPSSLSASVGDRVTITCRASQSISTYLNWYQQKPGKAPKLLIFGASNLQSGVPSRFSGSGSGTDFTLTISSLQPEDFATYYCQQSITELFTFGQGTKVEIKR have BT474 pHER3 % inhibition greater than or equal to 60%?
False

Tell me whether BT474 pHER3 % inhibition is at least 60% here: MOR12510 (antibody, human IgG1, kappa, V domains shown, tested as IgG) VH: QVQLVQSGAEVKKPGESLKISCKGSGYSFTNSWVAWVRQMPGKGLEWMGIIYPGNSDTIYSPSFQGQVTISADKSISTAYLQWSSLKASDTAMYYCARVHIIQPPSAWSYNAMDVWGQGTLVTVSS VL: DIQMTQSPSSLSASVGDRVTITCRASQSISTYLNWYQQKPGKAPKLLIFGASNLQSGVPSRFSGSGSGTDFTLTISSLQPEDFATYYCQQDIDEPWTFGQGTKVEIKR
True

BT474 pHER3 % inhibition >= 60% for MOR13754 (antibody, human IgG1, kappa, V domains shown, tested as IgG) VH: QVQLVQSGAEVKKPGESLKISCKGSGYSFTSYWVAWVRQMPGKGLEWMGIIYPGGSDTIYSPSFQGQVTISADKSISTAYLQWSSLKASDTAMYYCARVHIIQPPSAWSYNAMDVWGQGTLVTVSS VL: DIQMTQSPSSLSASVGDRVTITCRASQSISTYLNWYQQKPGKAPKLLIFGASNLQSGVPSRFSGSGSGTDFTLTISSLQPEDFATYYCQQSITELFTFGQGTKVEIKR ?
False

Reported BT474 pHER3 % inhibition at or above 60%? MOR13766 (antibody, human IgG1, kappa, V domains shown, tested as IgG) VH: QVQLVQSGAEVKKPGESLKISCKGSGYSFTTTWVAWVRQMPGKGLEWMGIIYPGSSDTIYSPSFQGQVTISADKSISTAYLQWSSLKASDTAMYYCARVHIIQPPSAWSYNAMDVWGQGTLVTVSS VL: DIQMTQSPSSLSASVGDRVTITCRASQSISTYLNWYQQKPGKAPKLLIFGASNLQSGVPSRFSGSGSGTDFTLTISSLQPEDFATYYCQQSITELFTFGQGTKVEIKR
True

Check if BT474 pHER3 % inhibition >= 60% (inclusive). Item: MOR13750 (antibody, human IgG1, kappa, V domains shown, tested as IgG) VH: QVQLVQSGAEVKKPGESLKISCKGSGYSFTSSWVAWVRQMPGKGLEWMGIIYPGGSDTIYSPSFQGQVTISADKSISTAYLQWSSLKASDTAMYYCARVHIIQPPSAWSYNAMDVWGQGTLVTVSS VL: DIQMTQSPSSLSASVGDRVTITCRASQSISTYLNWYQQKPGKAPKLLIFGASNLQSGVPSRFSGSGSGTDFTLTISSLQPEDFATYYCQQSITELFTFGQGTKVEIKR
False

Is BT474 pHER3 % inhibition for MOR12924 (antibody, human IgG1, kappa, V domains shown) VH: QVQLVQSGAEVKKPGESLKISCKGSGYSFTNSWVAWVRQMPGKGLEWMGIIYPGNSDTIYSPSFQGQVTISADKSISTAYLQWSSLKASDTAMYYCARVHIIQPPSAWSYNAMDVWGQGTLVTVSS VL: DIQMTQSPSSLSASVGDRVTITCRASQSISTYLNWYQQKPGKAPKLLIFGASNLQSGVPSRFSGSGSGTDFTLTISSLQPEDFATYYCQQSVWEPATFGQGTKVEIKR at or above 60%?
True

BT474 pHER3 % inhibition >= 60% for MOR13870 (antibody, human IgG1, kappa, V domains shown, tested as IgG) VH: QVQLVQSGAEVKKPGESLKISCKGSGYSFSNYWIAWVRQMPGKGLEWMGIIYPGTSDTIYSPSFQGQVTISADKSISTAYLQWSSLKASDTAMYYCARVHIIQPPSAWSYNAMDVWGQGTLVTVSS VL: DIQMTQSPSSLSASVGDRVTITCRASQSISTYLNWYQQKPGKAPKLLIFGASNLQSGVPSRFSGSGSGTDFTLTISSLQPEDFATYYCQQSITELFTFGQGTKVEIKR ?
True

Item MOR13871 (antibody, human IgG1, kappa, V domains shown, tested as IgG) VH: QVQLVQSGAEVKKPGESLKISCKGSGYSFSNYWIAWVRQMPGKGLEWMGIIYPGSSDTIYSPSFQGQVTISADKSISTAYLQWSSLKASDTAMYYCARVHIIQPPSAWSYNAMDVWGQGTLVTVSS VL: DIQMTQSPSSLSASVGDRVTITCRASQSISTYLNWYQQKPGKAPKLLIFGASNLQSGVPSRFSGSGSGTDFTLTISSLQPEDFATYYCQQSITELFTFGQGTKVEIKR with BT474 pHER3 % inhibition of 60% or above?
True
